Reported Wnt reporter firefly/Renilla luciferase ratio values follow for various compounds
System: HEK293T (UBE3A T485A transfected, BAR Wnt reporter)
Assay: Wnt reporter firefly/Renilla luciferase ratio relative to plate median (fold (linear ratio)); higher = more Wnt/beta-catenin reporter activation
Details: concentration: 0.01 uM; 24 h
Whole data set: some 1,100 compounds, median “Wnt reporter firefly/Renilla luciferase ratio relative to plate median” near 1.1, cut for the highest 2% near 1.6. This is one part of a sample in which the highest values are shown more often than they occur.
MEASUREMENT NAME: Wnt reporter firefly/Renilla luciferase ratio

> print(dat)
                                   compound  measured.result
1  CC(C(C)N1CC(=O)NC(=O)C1)N1CC(=O)NC(=O)C1 (stereo not given)             1.31
2  CC1COc2c(N3CCN(C)CC3)c(F)cc3c(=O)c(C(=O)O)cn1c23 (stereo not given)             1.21
3  O=C(O)c1cn(C2CC2)c2cc(N3CCNCC3)c(F)cc2c1=O            0.979
4  CC1CCC(NC(=O)N(CCCl)N=O)CC1 (stereo not given)             1.09
5  COc1c(N2CC3CCCNC3C2)c(F)cc2c(=O)c(C(=O)O)cn(C3CC3)c12 (stereo not given)            0.907
